These measurements were taken from patent US5310667A.

- ASSAY TARGET: petunia EPSP synthase glycine (101) to alanine variant (Petunia hybrida, UniProt P11043, G173A)
- Sequence (P11043 73-516 G173A): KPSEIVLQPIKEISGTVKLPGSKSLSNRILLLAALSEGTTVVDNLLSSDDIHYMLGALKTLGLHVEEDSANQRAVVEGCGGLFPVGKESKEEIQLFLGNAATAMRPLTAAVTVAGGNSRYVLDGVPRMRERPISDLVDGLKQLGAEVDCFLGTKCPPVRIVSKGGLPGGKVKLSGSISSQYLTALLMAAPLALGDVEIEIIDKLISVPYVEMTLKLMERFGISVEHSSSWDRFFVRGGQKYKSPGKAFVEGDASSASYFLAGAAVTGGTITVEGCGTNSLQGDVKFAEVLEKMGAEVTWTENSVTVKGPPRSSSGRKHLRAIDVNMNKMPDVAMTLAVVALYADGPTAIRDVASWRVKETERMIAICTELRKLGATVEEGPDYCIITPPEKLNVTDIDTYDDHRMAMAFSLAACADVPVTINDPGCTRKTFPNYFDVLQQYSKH
- ASSAY REMARKS: EPSP synthase kinetic constants (appKi glyphosate, appKm PEP)
OBSERVATION TYPE: pKi
Please express pKi as -log10 of the molar concentration.

Given O=C(O)CNCP(=O)(O)O [glyphosate, N-phosphonomethylglycine] , state its recorded pKi.
2.70

* * *

- ASSAY TARGET: wild type petunia EPSP synthase (Petunia hybrida, UniProt P11043)
- Sequence (P11043 73-516): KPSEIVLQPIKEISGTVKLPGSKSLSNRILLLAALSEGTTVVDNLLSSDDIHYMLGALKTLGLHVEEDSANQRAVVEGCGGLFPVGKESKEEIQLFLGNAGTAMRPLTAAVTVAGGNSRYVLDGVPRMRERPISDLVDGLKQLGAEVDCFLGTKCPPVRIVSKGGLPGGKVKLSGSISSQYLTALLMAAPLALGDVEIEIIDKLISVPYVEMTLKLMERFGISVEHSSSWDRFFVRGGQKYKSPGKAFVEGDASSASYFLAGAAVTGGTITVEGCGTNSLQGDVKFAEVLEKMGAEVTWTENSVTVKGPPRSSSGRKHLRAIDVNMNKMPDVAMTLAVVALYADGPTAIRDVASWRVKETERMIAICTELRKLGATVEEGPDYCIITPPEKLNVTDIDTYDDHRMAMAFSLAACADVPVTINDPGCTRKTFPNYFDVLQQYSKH
OBSERVATION TYPE: Ki
The answer consists of two parts: a number and, after it, its unit.

What value of Ki has been reported for the following compound? O=C(O)CNCP(=O)(O)O [glyphosate, N-phosphonomethylglycine]
400 nM
